system-name: Itk (Homo sapiens)
Construct: Kinases are expressed as either kinase domains or full length constructs; made in house
Sequence (Q08881 whole entry, species assumed, the tested form may be a part): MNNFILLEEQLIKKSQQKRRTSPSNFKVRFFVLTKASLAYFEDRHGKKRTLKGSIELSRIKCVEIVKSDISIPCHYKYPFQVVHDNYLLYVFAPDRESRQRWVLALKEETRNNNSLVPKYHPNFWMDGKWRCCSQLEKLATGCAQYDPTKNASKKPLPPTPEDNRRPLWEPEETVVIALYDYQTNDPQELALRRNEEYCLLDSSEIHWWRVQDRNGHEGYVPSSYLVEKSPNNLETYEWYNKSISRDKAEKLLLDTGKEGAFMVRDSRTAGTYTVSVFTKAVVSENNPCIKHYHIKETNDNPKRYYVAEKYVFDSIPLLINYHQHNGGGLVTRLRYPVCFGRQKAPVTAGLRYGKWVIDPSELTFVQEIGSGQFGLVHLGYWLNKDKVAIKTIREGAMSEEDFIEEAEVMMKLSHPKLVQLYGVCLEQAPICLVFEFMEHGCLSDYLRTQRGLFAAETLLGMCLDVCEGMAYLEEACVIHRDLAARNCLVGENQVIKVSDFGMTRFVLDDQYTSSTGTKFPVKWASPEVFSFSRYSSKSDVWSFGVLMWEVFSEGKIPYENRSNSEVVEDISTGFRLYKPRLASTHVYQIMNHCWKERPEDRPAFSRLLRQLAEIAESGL
method-summary: Kinase inhibition assay (33P transfer), Itk
Format: biochemical
condition-info: read-out: Itk-1
pIC50: −log10 of the molar value.
quantity-kind: pIC50

Guide cases for pIC50, answers given:
smiles_input=COc1cc(Nc2ncnc(Nc3ccc(OCC(=O)Nc4ccccc4)cc3)n2)cc(OC)c1OC quantity_kind=pIC50 result="5.32 to 6.10"
smiles_input=CN(c1cccc(Cl)c1)c1ncnc(Nc2cccc(Br)c2)n1 quantity_kind=pIC50 result="< 4.94"
smiles_input=O=C(O)Cc1ccc(Nc2ncnc(Nc3cc(-c4ccccc4)n[nH]3)n2)cc1 quantity_kind=pIC50 result="5.21 to 5.99"

## Task Item COc1cc(Nc2ncnc(-n3c(=O)[nH]c4ccccc43)n2)cc(OCCN2CCOCC2)c1OC has what recorded pIC50?
## Result < 5.04

## Task Same question for COc1cc(Nc2ncnc(-n3c(Nc4cccc5cccnc45)nc4ccccc43)n2)cc(OC)c1OC please.
## Result < 5.06

## Task Same question for COc1cc(Nc2ncnc(N(C)c3ccc(Cl)cc3)n2)cc(OC)c1OC please.
## Result < 4.95

## Task Same question for COc1cc(Nc2ncnc(-n3c(NCc4cccc(Br)c4)nc4ccccc43)n2)cc(OC)c1OC please.
## Result < 5.10

## Task Same question for COc1cc(Nc2ncnc(-c3c(O)[nH]c4ccc(Cl)cc34)n2)cc(OC)c1OC please.
## Result 4.98 to 5.09

## Task Same question for COc1ccc(Nc2ncnc(Nc3cccc(-c4ccnc(C)n4)c3)n2)cc1OC please.
## Result < 4.97

## Task Same question for O=c1[nH]c2ccccc2n1-c1ncnc(Nc2ccccn2)n1 please.
## Result < 4.83

## Task Same question for CN(c1cccc(Cl)c1)c1ncnc(Nc2ccc(NC(=O)OC(C)(C)C)cc2)n1 please.
## Result < 4.98

---

system-name: Itk (Homo sapiens)
Construct: Kinases are expressed as either kinase domains or full length constructs; made in house
method-summary: Kinase inhibition assay (33P transfer), Itk
Type: biochemical
condition-info: read-out: Itk-1
Procedure: The inhibitor compounds described herein are screened in the following manner. […] Kinases are expressed as either kinase domains or full length constructs fused to glutathione S-transferase (GST) or polyHistidine tagged fusion proteins in either E. colior Baculovirus-High Five expression systems. […] Kinase activity and inhibition are measured essentially by established protocols (Braunwalder et al., 1996). […]
pIC50: −log10 of the molar value.
pIC50 values by entry

## Task Lab note: need pIC50 with Itk (Homo sapiens) for entry COc1cc(Br)ccc1Nc1nc2ccccc2n1-c1ncnc(Nc2cc(OC)c(OC)c(OC)c2)n1 , please look it up.
## Result < 5.11

## Task Same question for COc1cc(Nc2ncnc(-n3c(NCCc4ccncc4)nc4ccccc43)n2)cc(OC)c1OC please.
## Result 5.15 to 5.32

## Task Same question for COc1cc(Nc2ncnc(Oc3ccc(OCc4ccccc4)cc3)n2)cc(OC)c1OC please.
## Result < 5.01

---

system-name: Kdr (Homo sapiens, UniProt P35968)
Construct: Kinases are expressed as either kinase domains or full length constructs; made in house
Sequence (P35968 20-1356, species assumed): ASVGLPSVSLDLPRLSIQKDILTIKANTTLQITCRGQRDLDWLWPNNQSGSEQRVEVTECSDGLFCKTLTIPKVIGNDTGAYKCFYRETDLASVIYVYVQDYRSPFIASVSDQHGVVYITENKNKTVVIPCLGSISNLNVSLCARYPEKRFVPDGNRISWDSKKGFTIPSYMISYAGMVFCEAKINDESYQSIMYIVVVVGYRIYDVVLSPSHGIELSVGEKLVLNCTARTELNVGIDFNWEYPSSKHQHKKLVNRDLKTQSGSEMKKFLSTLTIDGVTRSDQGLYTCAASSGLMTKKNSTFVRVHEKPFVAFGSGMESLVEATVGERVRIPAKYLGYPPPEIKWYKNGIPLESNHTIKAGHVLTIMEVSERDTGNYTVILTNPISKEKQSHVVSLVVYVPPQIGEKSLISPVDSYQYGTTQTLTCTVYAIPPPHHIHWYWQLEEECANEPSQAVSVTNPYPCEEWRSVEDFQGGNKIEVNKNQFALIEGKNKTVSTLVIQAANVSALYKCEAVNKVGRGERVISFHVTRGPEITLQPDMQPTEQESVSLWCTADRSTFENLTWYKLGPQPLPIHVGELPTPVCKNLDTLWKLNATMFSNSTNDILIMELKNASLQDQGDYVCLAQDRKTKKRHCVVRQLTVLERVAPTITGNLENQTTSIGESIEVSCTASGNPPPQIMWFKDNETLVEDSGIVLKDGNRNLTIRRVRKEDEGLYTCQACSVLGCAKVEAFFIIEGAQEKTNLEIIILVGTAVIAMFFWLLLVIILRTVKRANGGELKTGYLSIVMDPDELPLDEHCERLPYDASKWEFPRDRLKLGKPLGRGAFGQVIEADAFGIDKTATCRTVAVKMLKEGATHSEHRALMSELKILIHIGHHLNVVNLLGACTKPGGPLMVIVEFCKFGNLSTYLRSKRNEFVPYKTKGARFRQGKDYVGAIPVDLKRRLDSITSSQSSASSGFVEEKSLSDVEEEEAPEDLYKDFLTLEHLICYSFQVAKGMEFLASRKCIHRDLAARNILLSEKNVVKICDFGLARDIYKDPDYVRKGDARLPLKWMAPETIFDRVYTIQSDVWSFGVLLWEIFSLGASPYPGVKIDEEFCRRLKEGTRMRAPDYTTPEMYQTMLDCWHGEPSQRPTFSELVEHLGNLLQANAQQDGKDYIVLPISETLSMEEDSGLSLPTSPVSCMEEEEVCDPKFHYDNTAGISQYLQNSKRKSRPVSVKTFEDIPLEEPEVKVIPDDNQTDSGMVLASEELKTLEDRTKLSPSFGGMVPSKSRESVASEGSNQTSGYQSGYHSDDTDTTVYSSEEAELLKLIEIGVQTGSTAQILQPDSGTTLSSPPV
method-summary: Kinase inhibition assay (33P transfer), Kdr
Type: biochemical
condition-info: read-out: KDR-1
From the text: The inhibitor compounds described herein are screened in the following manner. […] Kinases are expressed as either kinase domains or full length constructs fused to glutathione S-transferase (GST) or polyHistidine tagged fusion proteins in either E. colior Baculovirus-High Five expression systems. […]
pIC50: −log10 of the molar value.
quantity-kind: pIC50

## Task Item COc1cc(Nc2ncnc(N(C)c3cccc4ccccc34)n2)cc(OC)c1OC has what recorded pIC50?
## Result > 6.02

## Task Same question for COc1cccc(Nc2ncnc(Nc3cc(-c4ccccc4)n[nH]3)n2)c1 please.
## Result 5.18 to 5.95

## Task Same question for Nc1nc2ccccc2n1-c1ncnc(Nc2ccc(-c3ccccc3)cc2)n1 please.
## Result 5.20 to 5.98

## Task Same question for COc1cc(Nc2ncnc(-n3c(Nc4ccc(OC(F)(F)F)cc4)nc4ccccc43)n2)cc(OC)c1OC please.
## Result 5.36 to 6.14

## Task Same question for COc1cc(Nc2ncnc(-n3c(NC(C)(C)c4ccccc4)nc4ccccc43)n2)cc(OC)c1OC please.
## Result > 6.11

## Task Same question for COc1cc(Nc2ncnc(Nc3ccc4c(cnn4Cc4ccccc4)c3)n2)cc(OC)c1OC please.
## Result 5.30 to 6.08

## Task Same question for COC(=O)Cc1cccc(Nc2ncnc(-n3c(N)nc4ccccc43)n2)c1 please.
## Result > 5.97

## Task Same question for O=c1[nH]c2ccccc2n1-c1ncnc(Nc2ccccc2Cl)n1 please.
## Result < 4.88

## Task Same question for O=C(O)Cc1ccc(Nc2ncnc(Nc3cc(-c4ccco4)n[nH]3)n2)cc1 please.
## Result > 5.97

## Task Same question for NC(=O)Cc1ccc(Nc2ncnc(Nc3cc(-c4ccccc4)n[nH]3)n2)cc1 please.
## Result > 5.98

## Task Same question for c1ccc(Cn2ncc3cc(Nc4ncnc(NCC5CCCCC5)n4)ccc32)cc1 please.
## Result 4.96 to 5.07

## Task Same question for COC(=O)c1ccc(-c2cc(Nc3ncnc(Nc4cccc(CC(=O)O)c4)n3)[nH]n2)cc1 please.
## Result 5.27 to 6.05

## Task Same question for Cc1ccc2c(c1)CCCN2c1ncnc(Nc2ccc3c(c2)C(=O)OC3)n1 please.
## Result 5.19 to 5.97

## Task Same question for CC(=O)N1CCc2cc(Nc3ncnc(N4CCCc5cc(C)ccc54)n3)ccc21 please.
## Result < 4.95
